Assay: Particle size determination by laser diffraction (MALVERN Mastersizer 2000)
Type: physicochemical
Conditions: dried particles; hydrochloride dihydrate
Structures can show the parent of a compound that is named as a salt.
OBSERVABLE: <150 μm (fraction of particles by volume smaller than specified diameter) (%)
Answers are plain numbers, in %.

Known <150 μm (fraction of particles by volume smaller than specified diameter) results, listed for orientation:
{"COMPOUND": "Cc1nccn1CC1CCc2c(c3ccccc3n2C)C1=O (single isomer, unassigned) [Example 2, ondansetron hydrochloride dihydrate]", "SCALE UNIT": "%", "EXPERIMENTAL VALUE": 90}
{"COMPOUND": "Cc1nccn1CC1CCc2c(c3ccccc3n2C)C1=O (single isomer, unassigned) [Example 3, ondansetron hydrochloride dihydrate]", "SCALE UNIT": "%", "EXPERIMENTAL VALUE": 85}
{"COMPOUND": "Cc1nccn1CC1CCc2c(c3ccccc3n2C)C1=O (single isomer, unassigned) [Example 1, ondansetron hydrochloride dihydrate]", "SCALE UNIT": "%", "EXPERIMENTAL VALUE": 90}
{"COMPOUND": "Cc1nccn1CC1CCc2c(c3ccccc3n2C)C1=O (single isomer, unassigned) [Example 5, ondansetron hydrochloride dihydrate]", "SCALE UNIT": "%", "EXPERIMENTAL VALUE": 85}

Could you now look at the following compound, please?
# <150 μm (fraction of particles by volume smaller than specified diameter) (compound: Cc1nccn1CC1CCc2c(c3ccccc3n2C)C1=O (single isomer, unassigned) [Example 4, ondansetron hydrochloride dihydrate] ) is 85

* * *

For each of the compounds below, state its Mean particle size.
Test: Particle size determination by laser diffraction (MALVERN Mastersizer 2000)
Type: physicochemical
Conditions: dried particles; hydrochloride dihydrate
Where a name gives a salt, the structure may show the parent alone.
Please state the number and follow it with the unit.

Known Mean particle size results, listed for orientation:
{"COMPOUND": "Cc1nccn1CC1CCc2c(c3ccccc3n2C)C1=O (single isomer, unassigned) [Example 4, ondansetron hydrochloride dihydrate]", "Mean particle size": "81 μm"}
{"COMPOUND": "Cc1nccn1CC1CCc2c(c3ccccc3n2C)C1=O (single isomer, unassigned) [Example 3, ondansetron hydrochloride dihydrate]", "Mean particle size": "81 μm"}
{"COMPOUND": "Cc1nccn1CC1CCc2c(c3ccccc3n2C)C1=O (single isomer, unassigned) [Example 1, ondansetron hydrochloride dihydrate]", "Mean particle size": "96 μm"}

Please report Mean particle size for every entry that follows.
1. Cc1nccn1CC1CCc2c(c3ccccc3n2C)C1=O (single isomer, unassigned) [Example 5, ondansetron hydrochloride dihydrate]
2. Cc1nccn1CC1CCc2c(c3ccccc3n2C)C1=O (single isomer, unassigned) [Example 2, ondansetron hydrochloride dihydrate]

Response line:
1: 89 μm; 2: 81 μm

* * *

Assay: Particle size determination by laser diffraction (MALVERN Mastersizer 2000)
Format: physicochemical
Conditions: dried particles; hydrochloride dihydrate
Where a name gives a salt, the structure may show the parent alone.
For each of the molecules below, state its <63 μm (fraction of particles by volume smaller than specified diameter).
One number for each entry, in %.

Known <63 μm (fraction of particles by volume smaller than specified diameter) results, listed for orientation:
{"MOLECULE": "Cc1nccn1CC1CCc2c(c3ccccc3n2C)C1=O (single isomer, unassigned) [Example 2, ondansetron hydrochloride dihydrate]", "SCALE UNIT": "%", "EXPERIMENTAL VALUE": 31}
{"MOLECULE": "Cc1nccn1CC1CCc2c(c3ccccc3n2C)C1=O (single isomer, unassigned) [Example 4, ondansetron hydrochloride dihydrate]", "SCALE UNIT": "%", "EXPERIMENTAL VALUE": 12}
{"MOLECULE": "Cc1nccn1CC1CCc2c(c3ccccc3n2C)C1=O (single isomer, unassigned) [Example 5, ondansetron hydrochloride dihydrate]", "SCALE UNIT": "%", "EXPERIMENTAL VALUE": 26}

# <63 μm (fraction of particles by volume smaller than specified diameter) (molecule: Cc1nccn1CC1CCc2c(c3ccccc3n2C)C1=O (single isomer, unassigned) [Example 3, ondansetron hydrochloride dihydrate] ) is 34

Values from patent US7288660B2
